These measurements were taken from paper PMC8119466.

SYSTEM: recombinant PRL-3 (Homo sapiens)
Construct: 6xHis (N, cleaved yes); made in house; host or cells: E. coli One Shot BL21 Star
Sequence (O75365 whole entry): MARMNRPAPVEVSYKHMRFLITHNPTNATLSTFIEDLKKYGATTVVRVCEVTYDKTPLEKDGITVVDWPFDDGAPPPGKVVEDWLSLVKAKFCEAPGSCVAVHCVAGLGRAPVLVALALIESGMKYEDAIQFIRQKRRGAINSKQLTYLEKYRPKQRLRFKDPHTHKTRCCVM
MEASUREMENT NOTES: In vitro phosphatase assay (DiFMUP hydrolysis), PRL-3
Format: biochemical
CONDITION PARAMETERS: 2.5 µM protein, DiFMUP at KM; read-out: Calculated IC50, PRL-3 phosphatase activity
PROPERTY LABEL: pIC50
Numbers only, as −log10 of the molar value.

Sample records with pIC50:
Oc1c(Cl)cc(Cl)cc1Sc1cc(Cl)cc(Cl)c1O [Bithionol, reference compound] | 4.48
CCCCC(CC)COC(=O)CC(C(=O)OCC(CC)CCCC)S(=O)(=O)O (stereo not drawn) [Docusate Sodium, reference compound] | 4.37
Cc1cc(C(C#N)c2ccc(Cl)cc2)c(Cl)cc1NC(=O)c1cc(I)cc(I)c1O (stereo not drawn) [Closantel, reference compound] | 4.96
CC(=O)c1cc2c(o1)C(=O)c1ccccc1C2=O [Napabucasin, reference compound] | 6.15

Can you give me pIC50 for all of these, one by one?
1. CC(C)=CCC/C(C)=C/CC/C(C)=C/CSc1ccccc1C(=O)O [Salirasib]
2. COc1cc(C(=O)O)ccc1NC(=O)[C@@H]1N[C@@H](CC(C)(C)C)[C@](C#N)(c2ccc(Cl)cc2F)[C@H]1c1cccc(Cl)c1F [Idasanutlin, reference compound]

Given back:
1: 4.57; 2: 4.89

----------
Assign % Phosphatase Activity (compared to DMSO) PRL-1 to each entry below.
SYSTEM: recombinant PRL-1 (Homo sapiens, UniProt Q93096)
Construct: 6xHis (N, cleaved yes); made in house; host or cells: E. coli One Shot BL21 Star
Sequence (Q93096 whole entry): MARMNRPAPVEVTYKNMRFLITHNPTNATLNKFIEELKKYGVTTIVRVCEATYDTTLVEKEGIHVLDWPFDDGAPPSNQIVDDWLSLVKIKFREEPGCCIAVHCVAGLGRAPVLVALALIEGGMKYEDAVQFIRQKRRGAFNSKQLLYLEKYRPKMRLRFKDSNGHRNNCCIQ
MEASUREMENT NOTES: In vitro phosphatase assay (DiFMUP hydrolysis), PRL-1
Type: biochemical
CONDITION PARAMETERS: FDA-approved drug screen; compared to DMSO
Where a name gives a salt, the structure may show the parent alone.
Numbers only, in %.

CC(C)OC(=O)C(C(=O)OC(C)C)=C1SC=CS1 [Malotilate] | 70
CN1CCN(C2=Nc3cc(Cl)ccc3Nc3ccccc32)CC1 | 108
Cc1[nH]c2ccccc2c1CCNCc1ccc(/C=C/C(=O)NO)cc1 | 95
C[N+](C)(C)CCCCCC[N+](C)(C)C [Hexamethonium Bromide] | 87
O=C(O)CCCc1ccc(N(CCCl)CCCl)cc1 | 98
CCN(C)C(=O)Oc1cccc([C@H](C)N(C)C)c1 [Rivastigmine Tartrate] | 95
CO/N=C(/C(=O)N[C@@H]1C(=O)N2C(C(=O)[O-])=C(CSc3nc(=O)c([O-])nn3C)CS[C@H]12)c1csc(N)n1.O.O.O.[Na+].[Na+] [Ceftriaxone Sodium Trihydrate] | 102
CCN(CC)CC#CCOC(=O)C(O)(c1ccccc1)C1CCCCC1 (stereo not drawn) [Oxybutynin] | 91

Turning now to a further record.
Asked: Recorded % Phosphatase Activity (compared to DMSO) PRL-1 for `COc1ccc2cc(CCC(C)=O)ccc2c1` with recombinant PRL-1 (Homo sapiens, UniProt Q93096), please?
Given back: 91

----------
Assignment: determine reported % Phosphatase Activity (compared to DMSO) PRL-1 for the given compounds.
SYSTEM: recombinant PRL-1 (Homo sapiens)
Construct: 6xHis (N, cleaved yes); made in house; host or cells: E. coli One Shot BL21 Star
MEASUREMENT NOTES: In vitro phosphatase assay (DiFMUP hydrolysis), PRL-1
Type: biochemical
CONDITION PARAMETERS: FDA-approved drug screen; compared to DMSO
Counter-ions that a name gives are not always drawn.
Give bare numbers, in %.

Consider the following items and state reported % Phosphatase Activity (compared to DMSO) PRL-1 for each.
1. CCN1CCN(C(=O)N[C@@H](C(=O)N[C@@H]2C(=O)N3C(C(=O)O)=C(CSc4nnnn4C)CS[C@H]23)c2ccc(O)cc2)C(=O)C1=O
2. Cc1cccc(C)c1NC(=O)CN1CCCC1=O
3. CCN(CC)CC(=O)Nc1c(C)cccc1C [Lidocaine hydrochloride]
4. CN(C)CCOC(C)(c1ccccc1)c1ccccn1 (stereo not drawn) [Doxylamine Succinate]
5. CNC(=C[N+](=O)[O-])NCCSCc1csc(CN(C)C)n1
6. CCOc1nc2cccc(C(=O)O)c2n1Cc1ccc(-c2ccccc2-c2nc(=O)o[nH]2)cc1

Given back:
1: 100; 2: 94; 3: 97; 4: 91; 5: 87; 6: 111
